Entry source: ChEMBL document CHEMBL1201862

- Tested on: LOX IMVI
- Protocol: NCI tumour cell line growth inhibition, 48 h
Active and inactive are the calls of the source. No stated cut-off is given here; in the data, active = GI50 up to about 1.1 µM and inactive = higher. Residues, ends and D or L forms follow the SMILES beside them. *: point of attachment. Fmoc = O=C(OCC1c2ccccc2-c2ccccc21)*; Boc = CC(C)(C)OC(=O)*
Quantity: GI50

Below: 3 compounds and their reported GI50.
CC(C)(C)OC(=O)NCCCCC(NC(=O)C(Cc1c[nH]c2ccccc12)NC(=O)OCC1c2ccccc2-c2ccccc21)C(=O)N1CCCC1C(=O)NCC(N)=O (centres undefined) (Fmoc-WK(Boc)PG-NH2; configuration not given here) :: > 100 µM (inactive)
O=C(N/N=C\c1ccc([N+](=O)[O-])cc1)Nc1ccccc1 :: > 10 µM (inactive)
NC(=S)N/N=C1\CCCCC1C(O)(C(F)(F)Cl)C(F)(F)Cl (centres undefined) :: > 10 µM (inactive)

Turning to the following compound.
Problem: Item COc1ccc(-c2sc(Br)c3c2C(=O)C2OC(=O)NC32)cc1OC (centres undefined) has what recorded GI50?
Result: 45.2 µM (inactive)
